# Target Under Test: T1, CRBN, Q96SW2;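 note: pooled lentiviral library of zinc finger degron-EGFP fusions in mCherry-positive Jurkat cells, FACS-sorted after compound exposure, with degron abundance counted by next-generation sequencing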
# T1 chain: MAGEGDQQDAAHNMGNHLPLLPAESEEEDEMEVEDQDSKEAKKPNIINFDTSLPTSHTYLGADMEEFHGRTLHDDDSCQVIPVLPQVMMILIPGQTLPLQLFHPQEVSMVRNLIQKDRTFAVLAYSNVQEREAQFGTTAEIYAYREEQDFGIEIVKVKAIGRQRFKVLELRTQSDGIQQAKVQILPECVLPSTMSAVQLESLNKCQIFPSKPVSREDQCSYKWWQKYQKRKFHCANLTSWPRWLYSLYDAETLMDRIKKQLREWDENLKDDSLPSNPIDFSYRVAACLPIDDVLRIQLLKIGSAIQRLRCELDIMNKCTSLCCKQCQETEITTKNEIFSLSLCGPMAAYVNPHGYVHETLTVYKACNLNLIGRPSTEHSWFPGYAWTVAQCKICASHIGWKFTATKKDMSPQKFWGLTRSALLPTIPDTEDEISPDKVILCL
# Procedure Details: log2 fold change of degron read counts, EGFP-low vs EGFP+ sorted cells (limma voom), compound-induced degradation; higher = more compound-induced degradation of the degron-EGFP fusion; degrons are variants of IKZF1/3 zinc finger 2; compound dose not given here
# Test Context: Jurkat; 18 h; compound: thalidomide
In all, about 8,300 sequences were measured (“log2 fold change of degron read counts, EGFP-low vs EGFP+ sorted cells (limma voom), compound-induced degradation”: median about -1.1, highest 2% from about 3.2 on). This is one part of a sample in which the highest values are shown more often than they occur.
# label = 1.0 if log2 fold change of degron read counts >= 1 else 0.0

Consider the worked cases shown below.
Please tell me: is the sequence FWCEICGALFTQKGNLLRHIKL [46F_47W_49E_50I_52G_53A_54L_55F_67L_, Q9UKT9] at or over 1 in terms of log2 fold change of degron read counts? 0.0

Given the entry LWCEICGFACTQKGNLLRHIKL [46L_47W_49E_50I_52G_53F_54A_55C_67L_, Q9UKT9] , answer whether its log2 fold change of degron read counts meets or surpasses 1. 1.0

Is log2 fold change of degron read counts for FACEICGAFFTQKGNLLRHIKL [46F_47A_49E_50I_52G_53A_54F_55F_67L_, Q9UKT9] at or above 1? 0.0

Check this sequence for log2 fold change of degron read counts at or above 1: LICEICGFACTQKGNLLRHIKL [46L_47I_49E_50I_52G_53F_54A_55C_67L_, Q9UKT9] 1.0

Does the reported log2 fold change of degron read counts for FHCNQCGHYFTQKGNLLRHIKL [46F_47H_49N_50Q_52G_53H_54Y_55F_67L_, Q9UKT9] fall at or above the 1 mark? 0.0

New cases:
# check: log2 fold change of degron read counts of FYCEICGAFFTQKGNLLRHIKL [46F_47Y_49E_50I_52G_53A_54F_55F_67L_, Q9UKT9] is greater than or equal to 1 0.0

Decide: is the reported value of log2 fold change of degron read counts for FGCNQCGHHFTQKGNLLRHIKL [46F_47G_49N_50Q_52G_53H_54H_55F_67L_, Q9UKT9] equal to or greater than 1? 0.0

Hi, just wondering whether FLCEICGAPFTQKGNLLRHIKL [46F_47L_49E_50I_52G_53A_54P_55F_67L_, Q9UKT9] shows log2 fold change of degron read counts of 1 or higher. 1.0

Does FWCEICGARFTQKGNLLRHIKL [46F_47W_49E_50I_52G_53A_54R_55F_67L_, Q9UKT9] have a reported log2 fold change of degron read counts of at least 1? 1.0

Check this sequence for log2 fold change of degron read counts at or above 1: LCCEICGFACTQKGNLLRHIKL [46L_47C_49E_50I_52G_53F_54A_55C_67L_, Q9UKT9] 1.0

Check if log2 fold change of degron read counts >= 1 (inclusive). Item: LCCNQCGFMCTQKGNLLRHIKL [46L_47C_49N_50Q_52G_53F_54M_55C_67L_, Q9UKT9] 0.0

In plain terms: is recorded log2 fold change of degron read counts at least 1 for FHCEICGAFFTQKGNLLRHIKL [46F_47H_49E_50I_52G_53A_54F_55F_67L_, Q9UKT9] ? 0.0

In plain terms: is recorded log2 fold change of degron read counts at least 1 for LQCEICGFACTQKGNLLRHIKL [46L_47Q_49E_50I_52G_53F_54A_55C_67L_, Q9UKT9] ? 1.0
